Cited source for all entries: PubChem BioAssay AID192

Test system: BDF1 mice, B16 melanoma ip, median survival T/C
Experiment: NCI In Vivo Anticancer Drug Screen. Data for tumor model B16 Melanoma (intraperitoneal) in B6D2F1 (BDF1) mice
Conditions: endpoint: median survival time; dose: 1.0 mg/kg/injection; schedule: Q01DX009 (ip); vehicle: saline; higher = longer survival
Inconclusive results and toxic doses are left out.
reported endpoint: T/C

1) CC(=O)OCC12CCC(C)=CC1OC1C(=O)CC2(C)C12CO2 (centres undefined)
110 % of control
2) CCC(=O)c1ccc2c(c1)N(CCCN1CCN(CCO)CC1)c1ccccc1S2
92 % of control
3) Nc1nc([Se])c2ncn(C3OC(CO)C(O)C3O)c2n1 (centres undefined)
114 % of control
4) CC(=O)OCC12CCC(C)=CC1OC1C(OS(C)(=O)=O)C(=O)C2(C)C12CO2 (centres undefined)
95 % of control

###

Tested on: BDF1 mice, B16 melanoma ip, median survival T/C
Assay: NCI In Vivo Anticancer Drug Screen. Data for tumor model B16 Melanoma (intraperitoneal) in B6D2F1 (BDF1) mice
Conditions: endpoint: median survival time; dose: 100.0 mg/kg/injection; schedule: Q01DX009 (ip); vehicle: Klucel (hydroxypropylcellulose) (HPC); higher = longer survival
Toxic doses and inconclusive results are not listed.
reported endpoint: T/C

1) CSc1ccc(NC(=O)Nc2ccccc2)cc1
102 % of control
2) COc1ccc(NC(=O)Nc2ccccc2F)cc1
97 % of control
3) O=c1[nH]cnc2nc(/N=N/SCCO)[nH]c12
101 % of control
4) O=C(O)CCC(NC(=O)OCc1ccccc1)C(=O)OCc1ccccc1 (stereo unspecified)
86 % of control
5) COc1ccc(-c2c(CC(=O)O)c3cc(OC)ccc3n2Cc2ccc(Cl)cc2)cc1
95 % of control
6) CC(=O)Nc1ccc(Cl)c(Cl)c1
121 % of control

###

System: BDF1 mice, B16 melanoma ip, median survival T/C
Test: NCI In Vivo Anticancer Drug Screen. Data for tumor model B16 Melanoma (intraperitoneal) in B6D2F1 (BDF1) mice
Conditions: endpoint: median survival time; dose: 50.0 mg/kg/injection; schedule: Q01DX009 (ip); vehicle: saline; higher = longer survival
Inconclusive results and toxic doses are left out.
reported endpoint: T/C

1. CC(C)(N)Cc1ccc(Cl)cc1
100 % of control
2. CN(C)CCCC#N
100 % of control
3. COC(=O)CC(N)C(=O)O (stereo not drawn)
113 % of control
4. COC(=O)C(CCCN)NC(=O)c1ccccc1 (stereo not drawn)
95 % of control
5. CC1(C)N=C(N)N=C(N)N1c1ccc(CCCCc2ccc(S(=O)(=O)F)cc2Cl)c(Cl)c1
178 % of control
6. C=CCc1ccccc1OC
109 % of control
7. CCOCCCN
122 % of control
8. CNC(=O)Oc1cccn(C(=O)NC)c1=O
87 % of control
9. O=C(O)C1CC[N-]CC1.O=C(O)C1CC[N-]CC1.O=C(O)C1CC[N-]CC1.O=C(O)C1CC[N-]CC1.[Cl][Rh][Cl]
94 % of control
10. Cc1cc2c(cc1C)C(=O)c1ccccc1C2=O
97 % of control
11. CC1(C)N=C(N)N=C(N)N1c1ccc(OCC(=O)N2CCOCC2)c(Cl)c1
93 % of control
12. C/C=C\C#N
107 % of control
13. CN(C)C1=NC(=O)C(c2ccccc2)O1 (stereo not drawn)
111 % of control
